Biological target: T1, cynomolgus monkey PSMA extracellular domain with 6His and Avi tag (PSMW1), biotinylated (cynomolgus monkey, UniProt Q04609 44-750 (human entry), biotinylated ; Biotinylated, presumably on the Avi tag, which is not in the letters. Glycosylated (expressed in HEK cells). PSMA forms a homodimer; one subunit is given.)
T1 construct: Expressed in 293HEK-expi cells; buffer with ZnCl2 to stabilize PSMA dimerization; A cyno PSMA-Fc fusion was also used in some plate-based pannings; also called cyno PSMA; Macaca Fascicularis PSMA
T1 chain: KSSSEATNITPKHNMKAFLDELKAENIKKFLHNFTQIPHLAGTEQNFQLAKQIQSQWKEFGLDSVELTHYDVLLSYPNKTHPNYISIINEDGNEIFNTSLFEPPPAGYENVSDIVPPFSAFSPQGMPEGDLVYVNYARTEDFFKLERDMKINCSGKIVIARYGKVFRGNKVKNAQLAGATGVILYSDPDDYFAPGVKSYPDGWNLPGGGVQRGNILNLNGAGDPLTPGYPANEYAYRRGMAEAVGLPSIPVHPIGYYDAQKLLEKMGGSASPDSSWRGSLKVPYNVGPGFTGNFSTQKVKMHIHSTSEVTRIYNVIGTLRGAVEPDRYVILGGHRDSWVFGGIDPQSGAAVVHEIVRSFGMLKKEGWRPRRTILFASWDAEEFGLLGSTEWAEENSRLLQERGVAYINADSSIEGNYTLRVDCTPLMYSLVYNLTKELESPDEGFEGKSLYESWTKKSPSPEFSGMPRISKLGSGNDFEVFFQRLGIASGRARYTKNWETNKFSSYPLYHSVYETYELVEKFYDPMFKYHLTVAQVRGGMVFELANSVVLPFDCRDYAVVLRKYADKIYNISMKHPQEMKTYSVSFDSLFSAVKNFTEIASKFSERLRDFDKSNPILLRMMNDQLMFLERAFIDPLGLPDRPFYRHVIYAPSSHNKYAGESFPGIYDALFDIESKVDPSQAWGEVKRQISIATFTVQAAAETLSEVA
Test: hit of CIS-display panning and ELISA screen on biotinylated PSMA (same antigen as in panning; signal at least 10-fold above background); column Antigen species
PARAMETER_MEASURED: binding result

Sample P258AR6P1071_F04 (designed binder, FN3 domain (Centyrin), unconjugated, as screened from E. coli lysate; not shown: C-terminal poly-histidine tag) LPAPKNLVVSRVTEDSARLSWVIDEQRDWFDSFLIQYQESEKVGEAIVLTVPGSERSYDLTGLKPGTEYTVSIYGVYHVYRSNPLSAIFTT — what was its binding result?
binds

Sample P258AR6P1071_G03 (designed binder, FN3 domain (Centyrin), unconjugated, as screened from E. coli lysate; not shown: C-terminal poly-histidine tag) LPAPKNLVVSRVTEDSARLSWDIDEQRDWFDSFLIQYQESEKVGEAIVLTVPGSERSYDLTGLKPGTEYTVSIYGVYHVYRSNPLSAIFTT — what was its binding result?
binds

Sample P258AR6P1070_F09 (designed binder, FN3 domain (Centyrin), unconjugated, as screened from E. coli lysate; not shown: C-terminal poly-histidine tag) LPAPKNLVVSRVTEDSARLSWTIDEQRDWFESFLIQYQESEKVGEAIVLTVPGSERSYDLTGLKPGTEYTVSIYGVYHVYRSNPLSAIFTT — what was its binding result?
binds

Data origin, for the record: patent US20160326232A1
